# Target or system: UniProt P36107
# Sequence (P36107 1-401): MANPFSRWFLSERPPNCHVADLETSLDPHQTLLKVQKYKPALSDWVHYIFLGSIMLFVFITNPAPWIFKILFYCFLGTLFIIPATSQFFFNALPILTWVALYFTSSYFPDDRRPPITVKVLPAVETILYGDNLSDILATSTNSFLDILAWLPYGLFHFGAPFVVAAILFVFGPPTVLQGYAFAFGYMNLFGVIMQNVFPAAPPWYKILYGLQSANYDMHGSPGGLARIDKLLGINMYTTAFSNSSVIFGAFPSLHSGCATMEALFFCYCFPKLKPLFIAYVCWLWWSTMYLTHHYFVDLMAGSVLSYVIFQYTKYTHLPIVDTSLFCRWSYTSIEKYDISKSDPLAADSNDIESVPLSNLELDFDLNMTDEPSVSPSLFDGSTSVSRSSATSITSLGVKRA
# Sequence (Q06346 1-221 partner): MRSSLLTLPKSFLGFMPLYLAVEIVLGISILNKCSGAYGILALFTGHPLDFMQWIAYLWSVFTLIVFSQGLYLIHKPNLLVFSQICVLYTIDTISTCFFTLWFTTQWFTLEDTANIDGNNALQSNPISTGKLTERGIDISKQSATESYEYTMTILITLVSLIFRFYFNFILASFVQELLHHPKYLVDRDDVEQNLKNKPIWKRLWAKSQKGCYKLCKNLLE
Quantity kind: IC50

Molecule: Cc1cc(Oc2ccc(C#N)c(CC(C)(C)C)c2)c(C)cc1N=CN1CCCCC1 [Compound 1]
Target or system: UniProt P36107
Recorded value: > 50 µM
